Origin of values: PubChem BioAssay (NCI)

Listing: TGI of selected molecules
test system: KM20L2 colon; assay: NCI tumour cell line growth inhibition, 48 h
result-type: TGI

CC1CSC(=S)N1C(=O)N1C(=S)SCC1C (stereo not given) :: > 100 µM
CCOC(=O)NC1C2CC(=O)C(O2)C1OCc1ccccc1 (stereo not given) :: > 100 µM
Cn1c(=O)c2nc3c4ccccc4c(=O)n(C)c3nc2n(C)c1=O :: > 100 µM
COc1ccc(OC)c(NC(=O)C2=C(C)NC(C)=C(C(=O)Nc3cc(OC)ccc3OC)C2c2ccco2)c1 :: > 100 µM
O=C1/C(=C/c2ccccc2)CN(C(=O)C(F)(F)F)C/C1=C\c1ccccc1 :: 4.34 µM
